Recorded values, source ChEMBL document CHEMBL1125462.

- tested.system: Muscarinic acetylcholine receptor (Rattus norvegicus) (UniProt P08482+P08483+P08485+P08911+P10980)
- method.description: Ratio of Compound (IC50(nM) of QNB/ IC50(nM) of OXO-M)
- Format: protein assay
Known Ratio of a selection of compounds

{"compound": "Clc1nnn(C2CN3CCC2CC3)n1 (stereo not drawn)", "Ratio": 21}
{"compound": "Clc1nnn([C@H]2CN3CC[C@H]2C3)n1", "Ratio": 83}
{"compound": "Brc1nnn([C@H]2CN3CC[C@H]2C3)n1", "Ratio": 111}
{"compound": "Brc1nnn(C2CN3CCC2CC3)n1 (stereo not drawn)", "Ratio": 25}
{"compound": "Ic1nnn(C2CN3CCC2CC3)n1 (stereo not drawn)", "Ratio": 5}
{"compound": "Ic1nnn([C@H]2CN3CC[C@H]2C3)n1", "Ratio": 8}
{"compound": "O=C1CCCN1CC#CCN1CCCC1", "Ratio": 190}
{"compound": "Clc1nnn(C23CCCN(CC2)C3)n1 (stereo not drawn)", "Ratio": 95}

====

Known IC50 of a selection of compounds
- tested.system: Muscarinic acetylcholine receptor
- method.description: In vitro ability to displace [3H]oxotremorine-M (OXO-M) from rat cerebral cortex muscarinic acetylcholine receptor
- Type: tissue-based
measurement.label: IC50 (nM)

{"compound": "Ic1nnn([C@H]2CN3CC[C@H]2C3)n1", "tested.system": "Muscarinic acetylcholine receptor", "measurement.label": "IC50", "reading.unit": "nM", "data.value": 48}
{"compound": "Ic1nnn(C2CN3CCC2CC3)n1 (configuration not stated)", "tested.system": "Muscarinic acetylcholine receptor", "measurement.label": "IC50", "reading.unit": "nM", "data.value": 43}
{"compound": "Clc1nnn(C2CN3CCC2CC3)n1 (configuration not stated)", "tested.system": "Muscarinic acetylcholine receptor", "measurement.label": "IC50", "reading.unit": "nM", "data.value": 27}
{"compound": "Clc1nnn([C@H]2CN3CC[C@H]2C3)n1", "tested.system": "Muscarinic acetylcholine receptor", "measurement.label": "IC50", "reading.unit": "nM", "data.value": 7.6}
{"compound": "Brc1nnn([C@H]2CN3CC[C@H]2C3)n1", "tested.system": "Muscarinic acetylcholine receptor", "measurement.label": "IC50", "reading.unit": "nM", "data.value": 7.4}
{"compound": "Brc1nnn(C2CN3CCC2CC3)n1 (configuration not stated)", "tested.system": "Muscarinic acetylcholine receptor", "measurement.label": "IC50", "reading.unit": "nM", "data.value": 20}
{"compound": "Clc1nnn(C23CCCN(CC2)C3)n1 (configuration not stated)", "tested.system": "Muscarinic acetylcholine receptor", "measurement.label": "IC50", "reading.unit": "nM", "data.value": 3.5}

====

- tested.system: Muscarinic acetylcholine receptor
- method.description: In vitro displacement of [3H]quinuclidinyl benzilate (QNB) from rat cerebral cortex muscarinic receptor.
- Format: tissue-based

{"compound": "N#Cc1nnn(C2CN3CCC2CC3)n1 (stereo unspecified)", "IC50 [µM]": 5.2}
{"compound": "Cn1ncc(C23CCN(CC2)C3)n1", "IC50 [µM]": 14.4}
{"compound": "Cn1ncc(C23CCCN(CC2)C3)n1 (stereo unspecified)", "IC50 [µM]": 3.1}
{"compound": "Nc1nnn(C2CN3CCC2CC3)n1 (stereo unspecified)", "IC50 [µM]": 4.4}
{"compound": "Cc1ncn([C@H]2CN3CC[C@H]2C3)n1", "IC50 [µM]": 4.3}
{"compound": "Cc1ncn(C23CCCN(CC2)C3)n1 (stereo unspecified)", "IC50 [µM]": 2.1}
{"compound": "OC(c1ccccc1)(c1ccccc1)c1nnn(C2CN3CCC2CC3)n1 (stereo unspecified)", "IC50 [µM]": 0.0028}
{"compound": "Cn1nnc([C@H]2CN3CC[C@H]2C3)n1", "IC50 [µM]": 2.9}
{"compound": "Cn1nnc(C23CCCN(CC2)C3)n1 (stereo unspecified)", "IC50 [µM]": 5.7}
{"compound": "Cn1nnc(C23CCN(CC2)C3)n1", "IC50 [µM]": 46.7}
{"compound": "Nc1nnn([C@H]2CN3CC[C@H]2C3)n1", "IC50 [µM]": 4.36}
{"compound": "c1nnn(C23CCCN(CC2)C3)n1 (stereo unspecified)", "IC50 [µM]": 7.2}
{"compound": "c1ncn([C@H]2CN3CC[C@H]2C3)n1", "IC50 [µM]": 38.2}
{"compound": "Cc1ncn(C23CCN(CC2)C3)n1", "IC50 [µM]": 14.9}
{"compound": "O=[N+]([O-])c1ncn([C@H]2CN3CC[C@H]2C3)n1", "IC50 [µM]": 35.6}
{"compound": "Nc1ncn([C@H]2CN3CC[C@H]2C3)n1", "IC50 [µM]": 3.6}
{"compound": "Cn1ncc([C@@H]2CN3CC[C@H]2C3)n1", "IC50 [µM]": 13.5}
{"compound": "c1ncn(C23CCN(CC2)C3)n1", "IC50 [µM]": 39.9}
{"compound": "c1nnn([C@H]2CN3CC[C@H]2C3)n1", "IC50 [µM]": 14.3}
{"compound": "Nc1ncn(C23CCCN(CC2)C3)n1 (stereo unspecified)", "IC50 [µM]": 3.9}
{"compound": "Cc1nnn(C23CCCN(CC2)C3)n1 (stereo unspecified)", "IC50 [µM]": 1.925}
